So I've got a bunch of molecules here, and I need their Max % death with 1 μM FO values.
system: HeLa MKYP cells; test: Cell death measured by DAPI staining, with 1 μM FCCP/oligomycin or no toxin (no FO); assay type: cell-based; settings: with 1 μM FO
Answers are plain numbers, in %.

Below are worked cases with known answers.
• OC[C@H]1CN([C@H]2COc3ccccc3[C@@H]2Nc2ncnc3[nH]c(C(F)(F)F)cc23)CCO1 (single isomer, unassigned) [EP-0041558] = 10.6
• OC[C@@H]1CCCN1[C@H]1CCc2ccccc2[C@@H]1Nc1ncnc2[nH]c(C3CC3)cc12 [EP-0040085] = 38.1
• FC1(F)CN(C2COc3ccccc3C2Nc2ncnc3[nH]c(C4CC4)cc23)C1 (racemic) [EP-0041566] = 30.0
• FC(F)(F)c1cc2c(N[C@@H]3c4ccccc4CC[C@@H]3C3CCOCC3)ncnc2[nH]1 [EP-0040558] = 3.0
• CO[C@@H]1CCN([C@@H]2COc3ccccc3[C@H]2Nc2ncnc3[nH]c(C(F)(F)F)cc23)C1 [EP-0041162] = 4.2
• c1ccc2c(c1)CC[C@@H](N1C[C@H]3COC[C@@H]3C1)[C@@H]2Nc1ncnc2[nH]c(C3CC3)cc12 [EP-0040767] = 7.9

We now examine a further molecule.
The value of Max % death with 1 μM FO measured for the molecule C[C@@H]1CN([C@H]2COc3ccccc3[C@@H]2Nc2ncnc3[nH]c(C(F)(F)F)cc23)C[C@H](C)O1 (single isomer, unassigned) [EP-0040749] turned out to be 34.3

====

Would you mind telling me the reported Highest safe dose (cytotoxicity; no FO; safe means DAPI+ <20%) of each entry?
tested on: HeLa MKYP cells; test: Cell death measured by DAPI staining, with 1 μM FCCP/oligomycin or no toxin (no FO); type: cell-based; settings: no FO; safe means DAPI+ <20%
Give bare numbers, in µM.

Record excerpt, results attached:
- FC(F)(F)c1cc2c(N[C@@H]3c4ccccc4OC[C@H]3N3CCOCC3)ncnc2[nH]1 [EP-0040252]: 25.0
- C[C@H]1CN([C@@H]2COc3ccccc3[C@H]2Nc2ncnc3[nH]c(C4CC4)cc23)CCO1 [EP-0041000]: 25.0
- c1ccc2c(c1)CC[C@H](N1CCOCC1)[C@H]2Nc1ncnc2[nH]c(C3CC3)cc12 (racemic) [EP-0039677]: 25.0
- C[C@@H]1CN([C@@H]2CCc3ccccc3[C@H]2Nc2ncnc3[nH]c(C(F)(F)F)cc23)C[C@H](C)O1 (single isomer, unassigned) [EP-0040494]: 25.0

Record Highest safe dose (cytotoxicity; no FO; safe means DAPI+ <20%) per entry; entries follow.
1. C[C@@H]1CN([C@@H]2COc3ccccc3[C@H]2Nc2ncnc3[nH]c(C(F)(F)F)cc23)C[C@H](C)O1 [EP-0040943]
2. C[C@H]1CN([C@@H]2COc3cc(F)ccc3[C@H]2Nc2ncnc3[nH]c(C4CC4)cc23)CCO1 [EP-0041125]
3. c1ccc2c(c1)OC[C@H](C1CCOCC1)[C@H]2Nc1ncnc2[nH]c(C3CC3)cc12 [EP-0040728]
4. Fc1ccc2c(c1)CC[C@H](N1C[C@@H]3COC[C@H]3C1)[C@H]2Nc1ncnc2[nH]c(C3CC3)cc12 [EP-0040669]
5. FC1COCCC1[C@H]1COc2ccccc2[C@@H]1Nc1ncnc2[nH]c(C(F)(F)F)cc12 (single isomer, unassigned) [EP-0041322]
6. Fc1ccc2c(c1)CC[C@@H](N1C[C@H]3COC[C@H]3C1)[C@@H]2Nc1ncnc2[nH]c(C(F)(F)F)cc12 (single isomer, unassigned) [EP-0040721]
7. OC(C1CCOCC1)[C@H]1COc2ccccc2[C@@H]1Nc1ncnc2[nH]c(C(F)(F)F)cc12 (some centres unmarked) [EP-0041135]
8. COC[C@H]1CCN([C@H]2COc3ccccc3[C@@H]2Nc2ncnc3[nH]c(C(F)(F)F)cc23)C1 (single isomer, unassigned) [EP-0041174]

Response:
1. 25.0
2. 25.0
3. 25.0
4. 25.0
5. 25.0
6. 8.3
7. 25.0
8. 25.0

Could I get Highest safe dose (cytotoxicity; no FO; safe means DAPI+ <20%) for every one of these entries?
1. FC(F)(F)c1cc2c(N[C@H]3c4ccccc4OC[C@@H]3N3CCC4(COC4)C3)ncnc2[nH]1 (single isomer, unassigned) [EP-0041516]
2. CO[C@H]1CCN([C@@H]2COc3ccccc3[C@H]2Nc2ncnc3[nH]c(C4CC4)cc23)C1 [EP-0041518]

Response:
1: 25.0; 2: 25.0

====

Kindly state EC50 for each of the entries shown.
test system: HeLa MKYP cells; assay: Human mitophagy assay (HeLa mKeima assay, FACS); type: cell-based; settings: Homo sapiens, HeLa; read-out: Mitophagy induction EC50

Would you please look over these solved cases?
• c1ccc2c(c1)CC[C@H](N1CCOCC1)[C@H]2Nc1ncnc2[nH]c(C3CC3)cc12 (racemic) [EP-0039677] = 210 nM
• Fc1ccc2c(c1)OC[C@H](N1C[C@H]3COC[C@H]3C1)[C@H]2Nc1ncnc2[nH]c(C(F)(F)F)cc12 (single isomer, unassigned) = > 25000 nM
• COC1CCN([C@H]2CCc3ccccc3[C@@H]2Nc2ncnc3[nH]c(C(F)(F)F)cc23)CC1 = > 25000 nM
• c1ccc2c(c1)C[C@H](N1C[C@H]3COC[C@H]3C1)[C@H]2Nc1ncnc2[nH]c(C3CC3)cc12 = > 25000 nM

For the 3 molecules below, give their EC50 values.
1. C[C@@]12COC[C@]1(C)CN(C1CCc3ccccc3C1Nc1ncnc3[nH]c(C(F)(F)F)cc13)C2 (stereo partly shown)
2. FC(F)(F)c1cc2c(N[C@@H]3c4ccccc4CC[C@@H]3N3CCOCC3)ncnc2[nH]1
3. C[C@H]1CN([C@@H]2COc3ccccc3[C@H]2Nc2ncnc3[nH]c(C4CC4)cc23)CCO1

Response:
1. 2730 nM
2. 20300 nM
3. 1320 nM

====

System: HeLa MKYP cells
Assay: Human mitophagy assay (HeLa mKeima assay, FACS)
Assay type: cell-based
Conditions: Homo sapiens, HeLa; read-out: Mitophagy induction EC50
Experimental: Briefly, HeLa MKYP cells were plated at 10,000 cells/well in 96 well plates along with compounds at various concentrations. Following 16 hrs of incubation, cells were treated with 1 uM FCCP/oligomycin for 6 hours, then analyzed via FACS for the presence of mitochondria in lysosomes (as determined by an emissions spectrum shift from the pH-sensitive mtKeima tag). […]
pEC50: −log10 of the molar value.
Entries get a class label from measured pEC50. See ranges: low class: < 6; middle class: ≥ 6 and < 7; high class: ≥ 7

- FC(F)(F)c1cc2c(NC3c4ccccc4CCC3N3CCC4(CCOC4)CC3)ncnc2[nH]1 (stereo not shown): low class
- Fc1ccc2c(c1)CC[C@H](N1C[C@@H]3COC[C@H]3C1)[C@H]2Nc1ncnc2[nH]c(C3CC3)cc12: middle class
- [2H]C([2H])([2H])OC1CN([C@H]2COc3ccccc3[C@@H]2Nc2ncnc3[nH]c(C(F)(F)F)cc23)C1 (single isomer, unassigned): middle class
- FC(F)(F)c1cc2c(N[C@@H]3c4ccccc4CC[C@H]3N3CCOCC3)ncnc2[nH]1 (racemic): middle class
- Fc1ccc2c(c1)CC[C@H](N1CCOCC1)[C@H]2Nc1ncnc2[nH]c(C(F)(F)F)cc12 (single isomer, unassigned): middle class
- CO[C@@H]1CCN([C@H]2COc3ccccc3[C@@H]2Nc2ncnc3[nH]c(C4CC4)cc23)C1: high class
- Fc1cccc2c1CC[C@@H](N1C[C@H]3COC[C@H]3C1)[C@@H]2Nc1ncnc2[nH]c(C(F)(F)F)cc12 (single isomer, unassigned): high class
- C[C@H]1CN([C@H]2COc3ccccc3[C@@H]2Nc2ncnc3[nH]c(C(F)(F)F)cc23)CCO1: low class
- C[C@H]1CN([C@@H]2COc3cc(F)ccc3[C@H]2Nc2ncnc3[nH]c(C(F)(F)F)cc23)CCO1: low class

Here is another compound to look at.
Query: Which pEC50 category applies to "c1ccc2c(c1)CC[C@@H](N1C[C@H]3COC[C@@H]3C1)[C@@H]2Nc1ncnc2[nH]c(C3CC3)cc12" here?
Response: low class

====

test system: HeLa MKYP cells; experiment: Human mitophagy assay (HeLa mKeima assay, FACS); assay type: cell-based; settings: Homo sapiens, HeLa; read-out: Mitophagy induction EC50
measured_attribute: pEC50
One number for each entry, as −log10 of the molar value.

Some solved entries appear below for comparison.
- C[C@@H]1CN([C@H]2COc3cc(F)ccc3[C@@H]2Nc2ncnc3[nH]c(C(F)(F)F)cc23)C[C@H](C)O1 (single isomer, unassigned) [EP-0040773]: 6.89
- CO[C@H]1CCN([C@H]2COc3ccccc3[C@@H]2Nc2ncnc3[nH]c(C(F)(F)F)cc23)C1: 8.00
- COC[C@@H]1CCCN1[C@H]1COc2ccccc2[C@@H]1Nc1ncnc2[nH]c(C(F)(F)F)cc12 (single isomer, unassigned): 4.99
- Fc1cccc2c1CC[C@@H](N1C[C@H]3COC[C@H]3C1)[C@@H]2Nc1ncnc2[nH]c(C3CC3)cc12 (single isomer, unassigned): 7.70
- CO[C@H]1CCN([C@H]2COc3ccccc3[C@@H]2Nc2ncnc3[nH]c(C4CC4)cc23)C1: 7.52

Could you tell me pEC50 for each of these compounds? They are listed below.
1. Fc1ccc2c(c1)OC[C@H](N1CCOCC1)[C@H]2Nc1ncnc2[nH]c(C3CC3)cc12
2. FC(F)(F)c1cc2c(N[C@H]3c4ccccc4OC[C@@H]3C3CCOCC3)ncnc2[nH]1 [EP-0040583]
3. CN1CCN([C@@H]2CCc3ccccc3[C@H]2Nc2ncnc3[nH]c(C(F)(F)F)cc23)CC1 (single isomer, unassigned)

Response:
6.00
6.62
5.04

Please look at the items below and tell me pEC50 for each one, in order.
1. COC(C)(C)C1CN([C@H]2COc3ccccc3[C@@H]2Nc2ncnc3[nH]c(C(F)(F)F)cc23)C1
2. C[C@@H]1COCCN1[C@@H]1CCc2ccccc2[C@H]1Nc1ncnc2[nH]c(C(F)(F)F)cc12 (single isomer, unassigned)

Response:
5.57
4.73
